Known IC50 of a selection of molecules
# system under test: Human recombinant USP1/UAF1 (Homo sapiens, UniProt O94782)
# Sequence (O94782 whole entry): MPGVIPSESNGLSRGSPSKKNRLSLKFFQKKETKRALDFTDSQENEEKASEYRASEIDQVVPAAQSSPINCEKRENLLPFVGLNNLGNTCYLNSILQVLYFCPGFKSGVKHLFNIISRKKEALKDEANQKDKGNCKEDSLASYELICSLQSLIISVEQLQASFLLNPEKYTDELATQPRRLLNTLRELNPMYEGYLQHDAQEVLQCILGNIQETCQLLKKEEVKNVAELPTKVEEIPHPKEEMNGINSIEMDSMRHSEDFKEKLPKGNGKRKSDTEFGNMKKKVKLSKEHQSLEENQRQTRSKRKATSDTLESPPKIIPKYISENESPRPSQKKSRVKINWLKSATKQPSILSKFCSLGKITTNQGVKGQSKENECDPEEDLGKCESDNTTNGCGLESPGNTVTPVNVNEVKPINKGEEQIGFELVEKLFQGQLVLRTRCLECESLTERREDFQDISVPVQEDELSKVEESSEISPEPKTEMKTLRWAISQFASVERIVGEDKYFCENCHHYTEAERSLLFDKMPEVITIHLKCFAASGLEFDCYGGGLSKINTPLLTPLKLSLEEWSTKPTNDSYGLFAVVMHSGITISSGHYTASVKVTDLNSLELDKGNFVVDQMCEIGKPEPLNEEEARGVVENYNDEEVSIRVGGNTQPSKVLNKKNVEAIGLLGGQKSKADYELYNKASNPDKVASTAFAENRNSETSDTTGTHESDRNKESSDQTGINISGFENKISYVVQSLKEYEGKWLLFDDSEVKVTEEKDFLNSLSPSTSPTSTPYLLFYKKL
# Sequence (Q8TAF3 whole entry partner): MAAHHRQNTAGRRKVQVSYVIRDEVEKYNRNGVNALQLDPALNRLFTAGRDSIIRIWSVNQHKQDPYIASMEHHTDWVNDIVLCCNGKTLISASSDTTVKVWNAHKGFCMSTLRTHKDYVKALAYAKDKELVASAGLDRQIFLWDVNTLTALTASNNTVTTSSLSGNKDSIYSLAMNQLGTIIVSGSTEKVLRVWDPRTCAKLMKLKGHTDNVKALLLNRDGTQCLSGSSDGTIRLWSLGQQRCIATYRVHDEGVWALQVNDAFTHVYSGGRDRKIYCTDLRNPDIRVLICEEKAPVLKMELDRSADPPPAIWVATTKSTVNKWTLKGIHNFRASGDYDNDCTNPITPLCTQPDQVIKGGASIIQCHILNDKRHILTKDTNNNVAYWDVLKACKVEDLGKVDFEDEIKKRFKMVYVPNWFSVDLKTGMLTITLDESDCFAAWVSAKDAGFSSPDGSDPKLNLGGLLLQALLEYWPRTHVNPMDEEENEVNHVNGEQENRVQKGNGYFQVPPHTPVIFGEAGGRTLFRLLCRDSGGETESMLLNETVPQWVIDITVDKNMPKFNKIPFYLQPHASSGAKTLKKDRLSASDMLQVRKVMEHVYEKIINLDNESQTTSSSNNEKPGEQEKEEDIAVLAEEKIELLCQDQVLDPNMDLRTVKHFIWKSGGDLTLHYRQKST
# assay overview: Enzymatic assay: USP1/UAF1 deubiquitination of Ubiquitin Rhodamine 110 (kinetic fluorescence)
# condition summary: 2 nM USP1/UAF1, 15 min preincubation at RT, HEPES pH 8.0, 500 nM Ubiquitin Rhodamine 110

Value of measured IC50 for the entry `Cc1nn(-c2c(OC(F)F)ncnc2C2CC2)c2c1CCN(c1ccc(-c3nc(C(F)(F)F)cn3C)cn1)C2` : 50 to 1000 nM

Entry under test: `COc1ncnc(C2CC2)c1-c1nn(C)c2c1CN(c1ccc(-c3nc(C(F)(F)F)cn3C)cn1)C2` . Its IC50 was 1000 to 10000 nM

Just so you know, measured IC50 for `Cc1nn(-c2ccccc2C(C)C)c2c1CCN(c1ccc(-c3nc(C(F)(F)F)cn3C)cn1)C2` came out at < 50 nM

So, `COc1ncnc(C2CC2)c1-n1nc(C)c2c1CN(c1ncc(-c3nc(C(F)(F)F)cn3C)s1)CC2` ? Its IC50 was 50 to 1000 nM

Query `COc1ncnc(C2CC2)c1-n1nc(C)c2c1CN(c1ncc(-c3nc(C(F)(F)F)cn3C)cn1)CC2` yields IC50 of 50 to 1000 nM

// field: IC50; key: `COc1ncnc(C2CC2)c1-n1nc(Cl)c2c1CN(c1ccc(-c3nc(C(F)(F)F)cn3C)cn1)CC2` ; value = < 50 nM

`CC(C)c1ncccc1-c1nn(C)c2c1CN(c1ncc(-c3nc(C(F)(F)F)cn3C)s1)C2` yielded IC50 of 50 to 1000 nM

For `Cc1cnn(C(C)C)c1-n1nc(C)c2c1CN(c1ccc(-c3nc(C(F)(F)F)cn3C)cn1)CC2` the molecule record lists IC50 as < 50 nM

Data point: `COc1ncnc(C2CC2)c1-c1nn(C)c2c1CN(c1ccc(-c3nc(C(F)(F)F)cn3C)nc1)C2` ; IC50 = 1000 to 10000 nM

IC50 measured on `COc1ncnc(C2CC2)c1-n1nc(C)c2c1CN(c1ccc(-c3nc(C(F)(F)F)cn3C)c(F)n1)CC2` = < 50 nM

----------
# system under test: Human recombinant USP1/UAF1 (Homo sapiens, UniProt O94782)
# assay overview: Enzymatic assay: USP1/UAF1 deubiquitination of Ubiquitin Rhodamine 110 (kinetic fluorescence)
# condition summary: 2 nM USP1/UAF1, 15 min preincubation at RT, HEPES pH 8.0, 500 nM Ubiquitin Rhodamine 110
readout name: IC50

Some entries whose results are on file:
| compound | IC50 |
| --- | --- |
| COc1ncnc(C2CC2)c1-n1nc(C)c2c1CN(c1ccc(-c3nc(C(F)(F)F)cn3C)cc1F)CC2 | 50 to 1000 nM |
| COc1ncnc(C2CC2)c1-c1nn(C)c2c1CN(c1ncc(-c3nc(C(F)(F)F)cn3C)s1)C2 | 50 to 1000 nM |
| COc1ncnc(C2CC2)c1-c1nccc2c1CC(c1ccc(-c3nc(C(F)(F)F)cn3C)cn1)C2 (stereo not shown) | 50 to 1000 nM |

get_value(item= `COc1ncnc(C2CC2)c1-c1nn(C)c2c1CN(c1cnc(-c3nc(C(F)(F)F)cn3C)s1)C2` , readout=IC50) returns 50 to 1000 nM

The reported IC50 of the compound `COc1ncnc(C2CC2)c1-n1nc(C(F)(F)F)c2c1CN(c1ccc(-c3nc(C(F)(F)F)cn3C)cn1)CC2` was 50 to 1000 nM

Noted for `CCn1cc(C(F)(F)F)nc1-c1cnc(N2CCc3c(C)nn(-c4c(OC)ncnc4C4CC4)c3C2)cn1` : its IC50 reads < 50 nM

IC50 for `COc1ncnc(C2CC2)c1-n1nc(C)c2c1CN(c1ccc(-c3nc(C(F)(F)F)cn3C(C)C)cn1)CC2` is 50 to 1000 nM

According to the records, this compound `Cc1cnn(C(C)C)c1-n1nc(C)c2c1CN(c1ccc(-c3nc(C(F)(F)F)cn3C)c(F)c1)CC2` displays IC50 of < 50 nM

Field IC50 (entry `COc1ncnc(C2CC2)c1-c1nn(C)c2c1CN(c1ncc(-c3nc(C(F)(F)F)cn3C(C)C)s1)C2` ) reads 50 to 1000 nM

Entry `CC(C)c1ncccc1-c1ncnc2c1CN(c1ccc(-c3nc(C(F)(F)F)cn3C)cc1)CC2` , IC50 reported as 1000 to 10000 nM

For `COc1ncnc(C2CC2)c1-c1nccc2c1CN(c1ccc(-c3nc(C(F)(F)F)cn3C)cn1)CC2` the compound record lists IC50 as 50 to 1000 nM

Reported IC50 ( `COc1ncnc(C2CC2)c1-c1nn(C)c2c1CN(c1ccc(-c3nc(C(F)(F)F)cn3C)cc1)C2` ) = 50 to 1000 nM

Kindly note the recorded IC50 for `COc1ncnc(C2CC2)c1-c1nnn2c1CN(c1ccc(-c3nc(C(F)(F)F)cn3C)cc1)CC2` , which is 50 to 1000 nM
